Every entry's value here was drawn from PubChem BioAssay (NCI).

- Tested on: OVCAR-5 ovarian
- Measurement Description: NCI tumour cell line growth inhibition, 48 h
Would you kindly list TGI for each of these compounds?

{"Compound": "CO[C@@H]1C=C[C@@]23c4cc5c(cc4CN(C[C@@H]2O)[C@H]3C1)OCO5", "TGI": "> 100 µM"}
{"Compound": "COc1cc2c(cc1OC)C1C(=O)c3c(O)cc4c(c3OC1CO2)C=CC(C)(C)O4 (stereo unspecified)", "TGI": "> 100 µM"}
{"Compound": "Cc1[nH]c(=O)[nH]c(=O)c1/C=C/C(=O)O (tested in a mixture with another compound)", "TGI": "> 625 µM"}
{"Compound": "CSC(=NC#N)S/C=C/C(=O)c1ccccc1", "TGI": "> 100 µM"}
{"Compound": "COc1cc(C(=O)O[C@H](C(=O)NCCCNC(=O)[C@@H](OC(=O)c2cc(OC)cc3c(C)cccc23)[C@]2(C)CO2)[C@]2(C)CO2)c2cccc(C)c2c1", "TGI": "1.45 µM"}

Batch lookup, TGI per entry.
1. COc1cccc(/C=C/C(=O)c2ccc(SC)cc2)c1OC
2. Cc1ccc(Nc2nccc(N(C)c3ccc4c(C)n(C)nc4c3)n2)cc1S(N)(=O)=O
3. COc1ccc2c3c(Nc4cccc(/C(C)=N\O)c4)[nH]c4ccccc4c-3c(N=O)c2c1
4. COC(=O)N1CC(=O)C(C(=O)NC23CC4CC(CC(C4)C2)C3)C1 (stereo unspecified)

Output:
["34.2 µM", "> 100 µM", "96.9 µM", "> 100 µM"]

---

- System: 786-0 renal
- Measurement Description: NCI tumour cell line growth inhibition, 48 h; in the data active = GI50 below about 0.43 µM; inactive = the rest
Please state which outcome applies, choosing from active, inactive

Input: How did this test come out for C=C(CN1CCN(c2ccc(C(F)(F)F)cc2)CC1)c1ccc(C(=O)Nc2ccccc2N)cc1 ?
Output: inactive

Input: Which outcome was entered for the compound Cc1nc2c(c(N3CCCc4ccccc43)n1)CCC2 in this test?
Output: active

Input: Recorded test outcome, item C[C@@]1(C(=O)O)CCC[C@]2(C)C1CC[C@@]13C[C@@](O)(CC[C@]12O)[C@@]1(CO1)C3 (stereo partly drawn)
Output: inactive

---

- Tested on: UACC-62 melanoma
- Measurement Description: NCI tumour cell line growth inhibition, 48 h
Measure Name: TGI

Examples from the recorded data:
{"Compound": "Clc1cc2nn(C3CCCCO3)nc2cc1Cl (configuration not stated)", "Result": "> 100 µM"}
{"Compound": "O=c1c2ccc(S(=O)(=O)c3ccc4c(=O)n5c6ccccc6nc5c5cccc3c45)c3cccc(c32)c2nc3ccccc3n12", "Result": "> 100 µM"}
{"Compound": "CC(=O)OC(CC1(C)C(C)CCC23COC(=O)C2=CCCC31)c1ccoc1 (configuration not stated)", "Result": "59.9 µM"}

Batch request: TGI for each of the following compounds.
1. CC(=O)Nc1ccc2nc(-c3ccccn3)c(-c3ccccn3)nc2c1
2. COc1cc(-c2nccc3cc(OC)c(OC)cc23)ccc1O
3. CCN(CC)CCCC(C)Nc1ccnc2cc(Cl)ccc12 (configuration not stated)
4. Cn1c(=O)c(Oc2ccc(F)cc2F)cc2cnc(NC(C)(C)CO)nc21

Output:
1: > 100 µM; 2: > 100 µM; 3: > 100 µM; 4: > 25 µM
